Numbers sourced from paper PMC2755569.

# test summary: Steady-state plasma pharmacokinetics of LPV/RTV plus EFV, protocol P1058
# stated conditions: human, plasma, oral, EstC24 hours, GM (90% CI), geometric mean (90% CI); EFV 350 mg/m^2 q.d. with LPV/RTV
parameter: concentration at 24 h (ng/mL)
Your answer is read as ng/mL, so omit the unit and give the number.

Asked: What does the data say about its concentration at 24 h? Entry: "O=C1Nc2ccc(Cl)cc2[C@@](C#CC2CC2)(C(F)(F)F)O1"
Given back: 800

###

# test summary: Steady-state plasma pharmacokinetics of LPV/RTV plus EFV, protocol P1058
# stated conditions: human, plasma, oral, Cmin (C12 h), median (range); LPV/RTV 300 mg/m^2 b.i.d. with EFV; 15 patients
parameter: concentration at 12 h (ng/mL)
Your answer is read as ng/mL, so omit the unit and give the number.

Asked: What does the data say about its concentration at 12 h? Entry: "CC(C)c1nc(CN(C)C(=O)N[C@H](C(=O)N[C@@H](Cc2ccccc2)C[C@H](O)[C@H](Cc2ccccc2)NC(=O)OCc2cncs2)C(C)C)cs1"
Given back: 300

###

# test summary: Steady-state plasma pharmacokinetics of LPV/RTV plus EFV, protocol P1058
# stated conditions: human, plasma, oral, 350 mg/m2, AUC24, GM (90% CI), geometric mean (90% CI); EFV 350 mg/m^2 q.d. with LPV/RTV
parameter: AUC
Hey, just the number and the unit after it is fine.

Asked: What does the data say about its AUC? Entry: O=C1Nc2ccc(Cl)cc2[C@@](C#CC2CC2)(C(F)(F)F)O1 [EFV, efavirenz]
Given back: 44100 ng·h/mL

###

# test summary: clinical
# stated conditions: human, in vivo, 300 mg/m2, AUCτ (AUC12)
parameter: AUC (µg·h/mL)
Your answer is read as µg·h/mL, so omit the unit and give the number.

Asked: What does the data say about its AUC? Entry: "Cc1cccc(C)c1OCC(=O)N[C@@H](Cc1ccccc1)[C@@H](O)C[C@H](Cc1ccccc1)NC(=O)[C@H](C(C)C)N1CCCNC1=O"
Given back: 100
